Provide the reported self-cleavage of each item.
B1: HDV Ribozyme (parent)
chain: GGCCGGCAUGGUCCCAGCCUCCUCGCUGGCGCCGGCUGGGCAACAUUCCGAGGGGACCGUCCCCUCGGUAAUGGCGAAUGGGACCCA

- Variants of: B1
- experimentNotes: self-cleavage, relative activity (ratio to wild type); higher = more cleavage; co-transcriptional

Task item: Give the measured self-cleavage of G10C A77C .
Reply: 0.208

Task item: Give the measured self-cleavage of C7G G54U .
Reply: 0.219

Task item: Give the measured self-cleavage of A77G A78C .
Reply: 0.172

Task item: Give the measured self-cleavage of C3U G76U .
Reply: 0.973

Task item: Give the measured self-cleavage of U9C U65A .
Reply: 1.25

Task item: Give the measured self-cleavage of U37C U46C .
Reply: 0.914

Task item: Give the measured self-cleavage of G52A U72C .
Reply: 0.591

Task item: Give the measured self-cleavage of C36G C48A .
Reply: 0.272

Task item: Give the measured self-cleavage of C13U A70C .
Reply: 0.453

Task item: Give the measured self-cleavage of C33A G76C .
Reply: 0.251

Task item: Give the measured self-cleavage of U23A U46G .
Reply: 1.06

Task item: Give the measured self-cleavage of C33G C84U .
Reply: 0.0386

Task item: Give the measured self-cleavage of U12G C13G .
Reply: 0.639

Task item: Give the measured self-cleavage of G54U C66G .
Reply: 0.882

Task item: Give the measured self-cleavage of G5U C14A .
Reply: 0.0791

Task item: Give the measured self-cleavage of G34U G53U .
Reply: 0.223

Task item: Give the measured self-cleavage of U65C C66G .
Reply: 1.11

Task item: Give the measured self-cleavage of C26U A83C .
Reply: 0.95

Task item: Give the measured self-cleavage of U65A G68C .
Reply: 0

Task item: Give the measured self-cleavage of G11A A71C .
Reply: 0.295

Task item: Give the measured self-cleavage of G55C G74A .
Reply: 0.538

Task item: Give the measured self-cleavage of C15G U47G .
Reply: 0.665

All figures here come from the RNAGym collection of RNA variant scans (doi:10.7554/elife.80360).
